# Test system: LXRb homodimer (NR concentration 270 nM)
# ASSAY_DETAILS: PBM binding z-score (relative to random genomic background probes); higher = stronger binding; sequences stand for … in GC…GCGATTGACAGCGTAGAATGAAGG
OBSERVABLE: PBM binding z-score
Could you keep your reply to the number by itself?

Worked cases, answers included:
seq_text=CCGGACAGGTGAAAGGTAACTCAGTCTGGTACGC assayed_target="LXRb homodimer (NR concentration 270 nM)" observable="PBM binding z-score" endpoint_value=-0.858
seq_text=CCTGCTAGGTCAATGGTCTGCTAAAGCAGCTCGC assayed_target="LXRb homodimer (NR concentration 270 nM)" observable="PBM binding z-score" endpoint_value=-0.252
seq_text=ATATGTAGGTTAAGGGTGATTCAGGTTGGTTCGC assayed_target="LXRb homodimer (NR concentration 270 nM)" observable="PBM binding z-score" endpoint_value=0.807
seq_text=GCGACTGAGGCATCAGCAGGTTACCATAACTTAA assayed_target="LXRb homodimer (NR concentration 270 nM)" observable="PBM binding z-score" endpoint_value=-0.493
seq_text=ACAGACATGTGATGAAGGTAACTCAGGCTATCAT assayed_target="LXRb homodimer (NR concentration 270 nM)" observable="PBM binding z-score" endpoint_value=-0.283
seq_text=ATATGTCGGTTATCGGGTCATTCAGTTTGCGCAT assayed_target="LXRb homodimer (NR concentration 270 nM)" observable="PBM binding z-score" endpoint_value=0.586
seq_text=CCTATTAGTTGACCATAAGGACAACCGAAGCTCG assayed_target="LXRb homodimer (NR concentration 270 nM)" observable="PBM binding z-score" endpoint_value=1.33
seq_text=TAGCCTAGGTCATTGGGCGAGTATAGTACGCATC assayed_target="LXRb homodimer (NR concentration 270 nM)" observable="PBM binding z-score" endpoint_value=0.053
seq_text=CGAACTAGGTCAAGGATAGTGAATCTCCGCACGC assayed_target="LXRb homodimer (NR concentration 270 nM)" observable="PBM binding z-score" endpoint_value=-0.0688
seq_text=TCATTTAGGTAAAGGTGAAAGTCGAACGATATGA assayed_target="LXRb homodimer (NR concentration 270 nM)" observable="PBM binding z-score" endpoint_value=0.32

Data request, read-out PBM binding z-score, for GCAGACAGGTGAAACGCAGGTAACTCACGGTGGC -1.17

Data request, read-out PBM binding z-score, for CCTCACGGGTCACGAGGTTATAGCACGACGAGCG -0.109

Data request, read-out PBM binding z-score, for GGAACGAGGGCATTCGATTTGATAGCATGGCGAT -0.24

Data request, read-out PBM binding z-score, for CATTCAGGGTCAGCTAGGCCAGAGTAGGGACGGC 1.42

Data request, read-out PBM binding z-score, for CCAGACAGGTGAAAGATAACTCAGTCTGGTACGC -0.465

====

# Test system: PPARg:RXRa 90nM:30nM, anti-RXR (NR concentration 90 nM, RXRa partner concentration 30 nM)
# ASSAY_DETAILS: PBM binding z-score (relative to random genomic background probes); higher = stronger binding; sequences stand for … in GC…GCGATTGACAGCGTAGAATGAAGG
OBSERVABLE: PBM binding z-score
Could you keep your reply to the number by itself?

Worked cases, answers included:
seq_text=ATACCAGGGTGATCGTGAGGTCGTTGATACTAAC observable="PBM binding z-score" endpoint_value=0.486
seq_text=CCTCGGAGGACAGAAGGTCAGGGCTGTCCGCTTT observable="PBM binding z-score" endpoint_value=0.349
seq_text=CGTCCAAGGTCTTAGGAGGTCAGTGAAGACAGAT observable="PBM binding z-score" endpoint_value=0.43
seq_text=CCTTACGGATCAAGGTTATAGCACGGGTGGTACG observable="PBM binding z-score" endpoint_value=0.0556
seq_text=CTCGAAAGGTCCGTTGAGGTGAGTATACGGATAA observable="PBM binding z-score" endpoint_value=-0.198

Data request, read-out PBM binding z-score, for ACTAGCAGGCCAAGGGTCATTCAAGATTAGTCCG 7.5

====

Examples of sequences with documented PBM binding z-score follow.
# System: PPARg:RXRa IVT, anti-PPARg (NR concentration 270 nM, RXRa partner concentration 90 nM)
# ASSAY_DETAILS: PBM binding z-score (relative to random genomic background probes); higher = stronger binding; sequences stand for … in GC…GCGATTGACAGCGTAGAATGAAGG
Could you keep your reply to the number by itself?

Data request, read-out PBM binding z-score, for TTCCCAAGGTGAAGGTCGTTGATCCCTCTGTAGA 2.06

Data request, read-out PBM binding z-score, for TCATATAGGTAATACAGGTGAGAGTCGGCATCTA 3.29

Data request, read-out PBM binding z-score, for TAGCCTAGGTCATGCGGGCCAGTAGAGTGTCGGC 2.8

Data request, read-out PBM binding z-score, for TCATATAGGTAAAGGTGACAGTCGAACGATATGA 4.07

Data request, read-out PBM binding z-score, for ACTAGTTGGTCAGCGGAGGTCACACACAATTCGG 2.75

Data request, read-out PBM binding z-score, for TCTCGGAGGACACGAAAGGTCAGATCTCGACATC 1.5

Data request, read-out PBM binding z-score, for TAGCCTAGGTCATGGGCCAGTCTACCACGCGAAC 3.21

Data request, read-out PBM binding z-score, for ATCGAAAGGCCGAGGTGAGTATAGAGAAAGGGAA 0.581

====

# Test system: PPARg:RXRa 30nM:10nM, anti-RXR (NR concentration 30 nM, RXRa partner concentration 10 nM)
# ASSAY_DETAILS: PBM binding z-score (relative to random genomic background probes); higher = stronger binding; sequences stand for … in GC…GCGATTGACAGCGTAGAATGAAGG
OBSERVABLE: PBM binding z-score
Could you keep your reply to the number by itself?

seq_text=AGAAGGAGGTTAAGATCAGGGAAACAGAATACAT observable="PBM binding z-score" endpoint_value=0.855
seq_text=CGTCCAAGGTCAATGCTAGTTCAGTGAAAGCATT observable="PBM binding z-score" endpoint_value=1.01
seq_text=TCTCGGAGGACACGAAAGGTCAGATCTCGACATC observable="PBM binding z-score" endpoint_value=3.01
seq_text=ACTATTAGTTGAGACGAGGGGAACCGATAGGTTG observable="PBM binding z-score" endpoint_value=0.211
seq_text=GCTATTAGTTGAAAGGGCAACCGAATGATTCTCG observable="PBM binding z-score" endpoint_value=2.39
seq_text=ACGGACAGGTGAGTGAAGGTAACTCAGCTGGACG observable="PBM binding z-score" endpoint_value=-0.363
seq_text=ATCTCTAGGTAAAGATAGTTCAGTGAATGCAAAT observable="PBM binding z-score" endpoint_value=1.03
seq_text=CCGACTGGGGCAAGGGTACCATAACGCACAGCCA observable="PBM binding z-score" endpoint_value=2.6
seq_text=CCTTACGGGTCAAGGTTCTAGCACGGGTGGTACG observable="PBM binding z-score" endpoint_value=2.28
seq_text=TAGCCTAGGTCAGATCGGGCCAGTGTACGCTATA observable="PBM binding z-score" endpoint_value=-0.533

API: value(readout=PBM binding z-score, system=PPARg:RXRa 30nM:10nM, anti-RXR (NR concentration 30 nM, RXRa partner concentration 10 nM)) for record ACTAGCAGGCCAAGTTTGGGTCAGTCAAACAAAG -0.835

API: value(readout=PBM binding z-score, system=PPARg:RXRa 30nM:10nM, anti-RXR (NR concentration 30 nM, RXRa partner concentration 10 nM)) for record TAGCCTAGGTCATTCAGGGGCCAGTATTGAAAGC 0.291

====

# System: RARg homodimer (NR concentration 270 nM)
# ASSAY_DETAILS: PBM binding z-score (relative to random genomic background probes); higher = stronger binding; sequences stand for … in GC…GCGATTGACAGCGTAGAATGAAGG
Label 1 (yes) when PBM binding z-score is at or above 2; otherwise label 0 (no).

Please review the following examples before continuing.
seq_text=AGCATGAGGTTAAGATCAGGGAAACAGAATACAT answer_label="0 (no)"
seq_text=ACTTACGGGTCAACGAGGCTATAGCACGCGTATA answer_label="1 (yes)"
seq_text=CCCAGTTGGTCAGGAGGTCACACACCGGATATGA answer_label="1 (yes)"
seq_text=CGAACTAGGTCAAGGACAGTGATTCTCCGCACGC answer_label="1 (yes)"
seq_text=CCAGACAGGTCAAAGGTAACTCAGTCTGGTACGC answer_label="1 (yes)"

State whether the measured PBM binding z-score reaches 2, counting equality as reaching it, for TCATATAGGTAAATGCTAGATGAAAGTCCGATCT 0 (no)

State whether the measured PBM binding z-score reaches 2, counting equality as reaching it, for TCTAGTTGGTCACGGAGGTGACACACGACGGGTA 0 (no)

State whether the measured PBM binding z-score reaches 2, counting equality as reaching it, for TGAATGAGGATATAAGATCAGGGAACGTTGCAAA 0 (no)

State whether the measured PBM binding z-score reaches 2, counting equality as reaching it, for CGTCCAAGGTCAATGCTAGGGCAGTGAAAGCATT 1 (yes)

State whether the measured PBM binding z-score reaches 2, counting equality as reaching it, for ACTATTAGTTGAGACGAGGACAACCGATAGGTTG 0 (no)

State whether the measured PBM binding z-score reaches 2, counting equality as reaching it, for GATACAGGGTCAAGGCCAGTGTACGCGTATTGAT 1 (yes)

State whether the measured PBM binding z-score reaches 2, counting equality as reaching it, for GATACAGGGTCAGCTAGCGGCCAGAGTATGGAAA 1 (yes)
